Counter-ions that a name gives are not always drawn.
Parameter Ki, tested on ml muscarinic receptor (Homo sapiens), listed per item.
Numbers only, in µM.

Need Ki for each of these compounds.
1. Cc1nnc(NCCCCN2CC3CCC(CC3)C2)n2cccc12 [Example 1, dihydrochloride]
2. Cc1nnc(NCCN2CC3CCC(CC3)C2)n2cccc12 [Example 3, dihydrochloride]
3. Cc1nnc(NCCCN2CC3CCC(CC3)C2)n2cccc12 [Example 2, dihydrochloride]

Out:
1. 0.31
2. 4.45
3. 1.39

* * *

Target under test: ml muscarinic receptor (Homo sapiens, UniProt P11229)
Sequence (P11229 whole entry): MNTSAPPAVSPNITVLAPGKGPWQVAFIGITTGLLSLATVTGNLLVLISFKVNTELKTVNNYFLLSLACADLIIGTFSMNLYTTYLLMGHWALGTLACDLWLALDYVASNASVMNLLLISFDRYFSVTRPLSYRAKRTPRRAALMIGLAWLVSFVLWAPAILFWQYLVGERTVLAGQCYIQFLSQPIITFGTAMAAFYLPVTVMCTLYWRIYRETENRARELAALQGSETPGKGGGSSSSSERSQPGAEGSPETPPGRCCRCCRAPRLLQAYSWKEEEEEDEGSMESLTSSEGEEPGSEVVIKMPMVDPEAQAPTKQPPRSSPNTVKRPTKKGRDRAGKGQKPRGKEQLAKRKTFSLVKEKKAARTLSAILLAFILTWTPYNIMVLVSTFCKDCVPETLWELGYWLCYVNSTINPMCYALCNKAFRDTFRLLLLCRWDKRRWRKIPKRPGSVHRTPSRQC
Counter-ions that a name gives are not always drawn.
Quantity: pIC50
Answers are plain numbers, as −log10 of the molar value.

In: I'd like to know its pIC50. The compound in question is Cc1nnc(NC2CN3CCC2CC3)n2cccc12 (stereo not shown) [Example 4, dihydrochloride]
Out: 4.70
